Listing of entries alongside the reported inhibition.
Target: UniProtKB P24008
Assay: Inhibition against rat Steroid 5-alpha-reductase type I at 10 uM concentration using 18213 3H testosterone 210 nM as substrate
Your answer is read as %, so omit the unit and give the number.

Take a look at these entries with their results.
O=C(O)c1ccc(-c2ccc3c(ccn3Cc3ccccc3)c2)cc1 = 12
O=C(O)c1ccc(-c2ccc3c(ccn3C(c3ccccc3)c3ccccc3)c2)cc1 = 26
CCCCn1ccc2cc(-c3ccc(C(=O)O)cc3)ccc21 = 17

Now examine the next entry.
Record CCCC(CCC)n1ccc2cc(-c3ccc(C(=O)O)cc3)ccc21 , field inhibition: 43

----------
Target: 3-oxo-5-alpha-steroid 4-dehydrogenase 2 (Homo sapiens)
Assay: Inhibitory activity against human 5-alpha-reductase type 2 using 18213 3H testosterone 210 nM as substrate
Quantity name: IC50 (µM)
Your answer is read as µM, so omit the unit and give the number.

# lookup: O=C(O)c1ccc(-c2ccc3c(ccn3Cc3ccccc3)c2)cc1 on 3-oxo-5-alpha-steroid 4-dehydrogenase 2 (Homo sapiens), IC50 = 6.2

----------
Target: 3-oxo-5-alpha-steroid 4-dehydrogenase 2 (Homo sapiens, UniProt P31213)
Sequence (P31213 whole entry): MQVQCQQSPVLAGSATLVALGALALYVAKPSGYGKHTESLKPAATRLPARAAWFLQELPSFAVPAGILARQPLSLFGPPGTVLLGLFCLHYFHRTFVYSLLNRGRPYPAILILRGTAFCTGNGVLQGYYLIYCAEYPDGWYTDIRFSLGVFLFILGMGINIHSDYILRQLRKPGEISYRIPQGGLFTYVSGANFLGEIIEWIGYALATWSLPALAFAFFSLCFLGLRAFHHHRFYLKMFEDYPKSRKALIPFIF
Assay: Inhibitory activity against human Steroid 5-alpha-reductase type 2 using 18213 3H testosterone 210 nM as substrate
Quantity name: IC50 (nM)
Your answer is read as nM, so omit the unit and give the number.

Record CC(C)(C)NC(=O)[C@H]1CC[C@H]2[C@@H]3CC=C4C=C(C(=O)O)CC[C@]4(C)[C@H]3CC[C@]12C [EPRISTERIDE] , field IC50: 3

----------
Molecular target: 3-oxo-5-alpha-steroid 4-dehydrogenase 1 (Homo sapiens)
Sequence (P18405 whole entry): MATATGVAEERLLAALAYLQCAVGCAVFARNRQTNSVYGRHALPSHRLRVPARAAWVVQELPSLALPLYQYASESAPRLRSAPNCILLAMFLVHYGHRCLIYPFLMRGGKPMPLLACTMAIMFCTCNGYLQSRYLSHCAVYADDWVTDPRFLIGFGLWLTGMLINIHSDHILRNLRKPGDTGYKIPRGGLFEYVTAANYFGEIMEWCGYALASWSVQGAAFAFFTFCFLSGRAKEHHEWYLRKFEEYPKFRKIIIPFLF
Experiment: Inhibitory concentration against human Steroid 5-alpha-reductase type I in DU 145 cell culture using 3H androstenedione 5 nM as substrate
Quantity name: IC50 (nM)
Your answer is read as nM, so omit the unit and give the number.

Record O=C(O)c1ccc(-c2ccc3c(ccn3CC3CCCCC3)c2)cc1 , field IC50: 2100

Record CC(C)(C)NC(=O)[C@H]1CC[C@H]2[C@@H]3CC=C4C=C(C(=O)O)CC[C@]4(C)[C@H]3CC[C@]12C [EPRISTERIDE] , field IC50: 1100

Record CCCC(CCC)n1ccc2cc(-c3ccc(C(=O)O)cc3)ccc21 , field IC50: 3200

Record O=C(O)c1ccc(-c2ccc3c(ccn3C(c3ccccc3)c3ccccc3)c2)cc1 , field IC50: 2780

----------
Biological target: 3-oxo-5-alpha-steroid 4-dehydrogenase 1 (Rattus norvegicus)
Sequence (P24008 whole entry): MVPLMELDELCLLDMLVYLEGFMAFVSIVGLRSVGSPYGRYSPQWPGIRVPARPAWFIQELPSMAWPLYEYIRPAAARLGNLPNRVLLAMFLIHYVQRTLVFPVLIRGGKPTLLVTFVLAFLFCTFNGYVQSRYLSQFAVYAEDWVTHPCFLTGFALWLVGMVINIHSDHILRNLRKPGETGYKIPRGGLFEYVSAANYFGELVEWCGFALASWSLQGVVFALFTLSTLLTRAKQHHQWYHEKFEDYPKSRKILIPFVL
Assay: Inhibitory activity against rat Steroid 5-alpha-reductase type I using 18213 3H testosterone 210 nM as substrate
Quantity name: pIC50
Schema: pIC50 number; meaning minus log10 of the concentration expressed in molar units.

# lookup: CC(C)(C)NC(=O)[C@H]1CC[C@H]2[C@@H]3CC=C4C=C(C(=O)O)CC[C@]4(C)[C@H]3CC[C@]12C [EPRISTERIDE] on 3-oxo-5-alpha-steroid 4-dehydrogenase 1 (Rattus norvegicus), pIC50 = 7.35
